Consider the following binders; for each one, report its IC50 (neutralization in TZM.bl cells).
- study-system: HIV-1 pseudovirus AC10.0.29 (HIV-1)
- method-description: cell-based or functional assay
Form entry: value (µg/mL) — number only.

Dear colleague, please send me the reported IC50 (neutralization in TZM.bl cells) for MS-81 (antibody, V domains shown) VH: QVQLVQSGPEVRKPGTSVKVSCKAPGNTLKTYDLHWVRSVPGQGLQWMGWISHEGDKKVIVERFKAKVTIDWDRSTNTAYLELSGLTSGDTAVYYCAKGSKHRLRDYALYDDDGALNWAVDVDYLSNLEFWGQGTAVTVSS VL: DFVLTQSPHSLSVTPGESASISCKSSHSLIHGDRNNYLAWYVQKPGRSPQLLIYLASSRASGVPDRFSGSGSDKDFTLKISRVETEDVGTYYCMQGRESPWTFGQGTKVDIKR when you can.
0.044

Dear colleague, please send me the reported IC50 (neutralization in TZM.bl cells) for MS-79 (antibody, V domains shown) VH: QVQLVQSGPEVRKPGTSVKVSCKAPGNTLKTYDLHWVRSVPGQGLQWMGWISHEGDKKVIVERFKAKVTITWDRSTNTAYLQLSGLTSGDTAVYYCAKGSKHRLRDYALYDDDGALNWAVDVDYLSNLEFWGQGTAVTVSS VL: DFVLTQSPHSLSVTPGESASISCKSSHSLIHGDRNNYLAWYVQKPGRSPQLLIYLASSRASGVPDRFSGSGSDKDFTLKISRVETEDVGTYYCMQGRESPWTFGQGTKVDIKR when you can.
0.056

Dear colleague, please send me the reported IC50 (neutralization in TZM.bl cells) for MS-87 (antibody, V domains shown) VH: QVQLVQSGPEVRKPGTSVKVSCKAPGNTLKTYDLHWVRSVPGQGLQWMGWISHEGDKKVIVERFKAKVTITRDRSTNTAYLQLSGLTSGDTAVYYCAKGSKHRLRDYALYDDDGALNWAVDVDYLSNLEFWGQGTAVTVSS VL: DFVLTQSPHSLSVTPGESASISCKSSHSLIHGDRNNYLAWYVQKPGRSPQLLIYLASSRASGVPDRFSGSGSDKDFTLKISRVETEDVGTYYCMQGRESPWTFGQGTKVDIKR when you can.
0.059

Values from patent US20220025021A1
